EXPERIMENT_NOTES: Cmax in Sprague-Dawley rat at 5 mg/kg, po by LC-MS/MS analysis
Assay type: ADME, organism-based
Design: dose 5 mg/kg, route oral
PARTICULARS: in vivo
PROPERTY_MEASURED: Cmax (ng/mL)

Cc1n[nH]c2cc(OCCNC[C@H](O)c3cccc(NS(C)(=O)=O)c3)ccc12 :: 107

I. CC(C)c1n[nH]c2cc(OCCNC[C@H](O)c3cccc(NS(C)(=O)=O)c3)ccc12
II. Cc1n[nH]c2cc(OCCNC[C@H](O)c3cccc(NS(=O)(=O)C4CCC4)c3)ccc12
Incoming: // which entry reports the smaller Cmax, I or II ? Write down the label attached to your selection.
Outgoing: I
